Target: T1, Human ST2 (human, UniProt Q01638 19-328, limits assumed)
T1 construct: also called human ST2 protein; Interleukin 1 receptor-like 1
T1 sequence (looked up): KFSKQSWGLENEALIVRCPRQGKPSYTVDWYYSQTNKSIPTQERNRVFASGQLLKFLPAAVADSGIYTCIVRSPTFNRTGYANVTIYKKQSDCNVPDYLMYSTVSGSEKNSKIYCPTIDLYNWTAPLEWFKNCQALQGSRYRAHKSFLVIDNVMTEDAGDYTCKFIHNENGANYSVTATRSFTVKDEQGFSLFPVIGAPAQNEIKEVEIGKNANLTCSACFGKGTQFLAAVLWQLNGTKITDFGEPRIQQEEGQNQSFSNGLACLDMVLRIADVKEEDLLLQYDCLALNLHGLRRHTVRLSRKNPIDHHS
Assay: SPR (Carterra), antibody immobilized, ST2 analyte
Attribute measured: pKd
A value of pKd is the negative decimal logarithm of a concentration given in moles per litre.

Request: Tell me its pKd given Human ST2 IgG1 Antibody 31 (antibody, V domains shown, IgG1; also called ST2 Antibody 31) VH: QVQLVQSGAEVKKPGSSVKVSCKASGGTFSTYAFSWVRQAPGQGLEYMGGIIPMFGTANYAQKFQGRVTITADESTSTAYMELSSLRSEDTAVYYCAGERGYGSLDYWGQGTLVTVSS VL: DIQMTQSPSSLSASVGDRVTITCRASQGIGSWLAWYQQKPGKAPKLLIYAASSLQSGVPSRFSGSGSGTDFTLTISSLQPEDFATYYCQQSYTFPYTFGQGTKLEIKR as the entry.
Result: 6.56

Let us move to another entry and its pKd.
Request: Tell me its pKd given Human ST2 IgG1 Antibody 96 (antibody, V domains shown, IgG1; also called ST2 Antibody 96) VH: QVQLVQSGAEVKKPGSSVKVSCKASGFSFSTYGVAWVRQAPGQGLEWMGGFVPIIGSANYAQKFQGRVTITADESTSTAYMELSSLRSEDTAVYYCARDYGGNLDYWGQGTLVTVSS VL: DIVMTQSPLSLPVTPGEPASISCRSSQSLLHSNGYNYLDWYLQKPGQSPQLLIYAASSLQSGVPDRFSGSGSGTDFTLKISRVEAEDVGVYYCMQGAHWPPTFGQGTKVEIKR as the entry.
Result: 6.47

Values were extracted from patent US20210403579A1.
